assay: Stability of cannabinoid and Vitamin E components of Beverage 2 (AB Red) stored at 8° C. and 21-25° C., LCMSMS over 570 days; conditions: 8° C., 29 days
Decision: Stability of Cannabinoids in AB Red compared against 3 µg/mL; not below it gives 1, below it gives -1.

Ask: Reported Stability of Cannabinoids in AB Red at or above 3 µg/mL? CCCCCc1cc(O)c2c(c1)OC1(C)CCC3C1C2C3(C)C (stereo not drawn)
Reply: -1

Ask: Is reported Stability of Cannabinoids in AB Red greater than or equal to 3 µg/mL here: CCCCCc1cc2c(c(O)c1C(=O)O)[C@@H]1C=C(C)CC[C@H]1C(C)(C)O2 [D9 THCA, delta-9-tetrahydrocannabinolic acid]
Reply: -1

Ask: # bool: Stability of Cannabinoids in AB Red of CCCCCc1cc(O)c2c(c1)OC(C)(C)c1ccc(C)cc1-2 >= 3 µg/mL
Reply: -1

Ask: Check if Stability of Cannabinoids in AB Red >= 3 µg/mL (inclusive). Item: C=C(C)[C@@H]1CCC(C)=C[C@H]1c1c(O)cc(CCCCC)c(C(=O)O)c1O
Reply: -1

Ask: Could you tell me if the measured Stability of Cannabinoids in AB Red of C=C(C)[C@@H]1CCC(C)=C[C@H]1c1c(O)cc(CCC)cc1O reaches 3 µg/mL or more?
Reply: -1

Ask: Textbook exercise: given the entry CCCCCc1cc(O)c2c(c1)OC(C)(C)[C@@H]1CCC(C)=C[C@@H]21 [D9 THC, delta-9-tetrahydrocannabinol, reference compound] , state whether its Stability of Cannabinoids in AB Red is greater than or equal to 3 µg/mL.
Reply: 1

Ask: Has CCCCCc1cc(O)c(C/C=C(\C)CCC=C(C)C)c(O)c1 a recorded Stability of Cannabinoids in AB Red greater than or equal to 3 µg/mL?
Reply: 1

Ask: Item CCCc1cc(O)c2c(c1)OC(C)(C)[C@@H]1CCC(C)=C[C@@H]21 [THCV, delta-9-tetrahydrocannabivarin] with Stability of Cannabinoids in AB Red of 3 µg/mL or above?
Reply: 1

Ask: Has CCCCCc1cc(O)c2c(c1)OC(C)(CCC=C(C)C)C=C2 (stereo not drawn) a recorded Stability of Cannabinoids in AB Red greater than or equal to 3 µg/mL?
Reply: -1
